Recorded values, source PubChem BioAssay (NCATS).

assay-overview: Quantitative High-Throughput drug screen in 47 multiple myeloma cell lines against the NCATS MIPE library collection: KMS34_JCRB cell viability assay (AID 1918985); further: nearly all actives have a fitted effect of over 40% in size
measurement-parameters: KMS34 myeloma viability, CellTiter-Glo ATP luminescence, 48 h; series mostly up to 45.8 µM
Inconclusive results are not listed. Active and inactive are the calls of the source. The call rests on the fitted dose curve; in most records, active means well fitted cell-killing curve with a large enough effect; inconclusive means small, poorly fitted or top-dose-only effect, or effect the other way; inactive means no such curve, though single readings can be large or run the other way.
Possible outcomes: active, inactive

| compound | classification |
| --- | --- |
| COc1ccc2ccc(=O)oc2c1CC=C(C)C | active |
| Cc1cnc(Nc2cccc(CN3CCOCC3)c2)nc1Nc1cccc(S(=O)(=O)NC(C)(C)C)c1 | active |
| Fc1ccc(C(c2ccc(F)cc2)N2CCN(CC=Cc3ccccc3)CC2)cc1 | inactive |
| CN(C)CCOc1cc(-c2cn[nH]c2)ccc1NC(=O)C1COc2ccccc2O1 (stereo not given) | active |
| CNC1[C@H](O)C(O[C@@H]2C(O)C(O[C@H]3O[C@H]([C@@H](C)NC)CC[C@H]3N)[C@@H](N)C[C@H]2N)OC[C@]1(C)O (stereo not given in full) | inactive |
